Source listed as ChEMBL document CHEMBL2384945.

assay remarks: AUClast in mouse at 50 mg/kg, po
Type: ADME, organism-based
Set-up: time 0 - last, dose 50 mg/kg, route oral
test parameters: plasma
readout label: AUC(0-t) (µg·h/mL)
A number alone suffices; assume µg·h/mL.

Check out these entries, answers already filled in.
>  <mol>
CCOc1cc(C(C)(C)C)ccc1C1=N[C@@](C)(c2ccc(Cl)cc2)[C@@](C)(c2ccc(Cl)cc2)N1C(=O)N1CCN(CCNC(C)=O)CC1

>  <readout label>
AUC(0-t)

>  <value units>
µg·h/mL

>  <endpoint value>
136

$$$$
>  <mol>
CCOc1cc(C(C)(C)C)ccc1C1=N[C@@](C)(c2ccc(Cl)cc2)[C@@](C)(c2ccc(Cl)cc2)N1C(=O)N1CCN(CC(=O)N2CCCC2)CC1

>  <readout label>
AUC(0-t)

>  <value units>
µg·h/mL

>  <endpoint value>
8.3

$$$$
>  <mol>
CCOc1cc(C(C)(C)C)ccc1C1=N[C@@](C)(c2ccc(Cl)cc2)[C@@](C)(c2ccc(Cl)cc2)N1C(=O)N1CCN(C(C)=O)CC1

>  <readout label>
AUC(0-t)

>  <value units>
µg·h/mL

>  <endpoint value>
64.9

$$$$

// moving on: another record for AUC(0-t)
AUC(0-t) lookup needed for CCOc1cc(C(C)(C)C)ccc1C1=N[C@@](C)(c2ccc(Cl)cc2)[C@@](C)(c2ccc(Cl)cc2)N1C(=O)N1CCN(CCCS(C)(=O)=O)CC1 , thanks.
251
